species: Rattus norvegicus; test: DrugMatrix - Regimen: Daily Repeat; type: toxicity, organism-based, Sprague-Dawley; design: regimen Daily Repeat, gender Male, age 6-8 weeks; conditions: in vivo, iv, 0 mg/kg, 120 h, tissue Blood, dose level Control, time 5 day, vehicle 100 % SALINE
metric.name: ABSOLUTE SEGMENTED NEUTROPHIL (CELLS/uL)
# unit: CELLS/uL | format: bare number

Q) May I ask what ABSOLUTE SEGMENTED NEUTROPHIL has been recorded for `CC(=O)N[C@@H]1[C@H](Oc2c3cc4cc2Oc2ccc(cc2Cl)[C@@H](O[C@@H]2O[C@@H](CO)[C@@H](O)[C@H](O)[C@@H]2NC(C)=O)[C@@H]2NC(=O)[C@H](NC(=O)[C@@H]4NC(=O)[C@H]4NC(=O)[C@@H](Cc5ccc(c(Cl)c5)O3)NC(=O)[C@H](N)c3ccc(O)c(c3)Oc3cc(O)cc4c3)c3ccc(O)c(c3)-c3c(O[C@H]4O[C@H](CO)[C@@H](O)[C@@H](O)[C@@H]4O)cc(O)cc3[C@@H](C(=O)O)NC2=O)O[C@@H](CO)[C@@H](O)[C@@H]1O` ?
A) 1836.67

---

Recorded URIC ACID for the following molecules
organism: Rattus norvegicus; assay: DrugMatrix - Regimen: Daily Repeat; type: toxicity, organism-based, Sprague-Dawley; design: regimen Daily Repeat, gender Male, age 6-8 weeks; settings: in vivo, po, 1500 mg/kg, 120 h, tissue Plasma, route oral GAVAGE, dose level High, time 5 day, vehicle .5 % CMC
# unit: mg/dL | format: bare number

- molecule: "O=C(N[C@H](CO)[C@H](O)c1ccc([N+](=O)[O-])cc1)C(Cl)Cl"
  measure.unit: "mg/dL"
  URIC ACID: 1.3
- molecule: "Cc1ccc(S(=O)(=O)NC(=O)NN2CC3CCCC3C2)cc1 (configuration not stated) [GLICLAZIDE]"
  measure.unit: "mg/dL"
  URIC ACID: 1.7
- molecule: "NC(=O)c1cnccn1 [PYRAZINAMIDE]"
  measure.unit: "mg/dL"
  URIC ACID: 1.37
- molecule: "C[C@]1(Cn2ccnn2)[C@H](C(=O)O)N2C(=O)C[C@H]2S1(=O)=O"
  measure.unit: "mg/dL"
  URIC ACID: 1.8
- molecule: "CNC(=C[N+](=O)[O-])NCCSCc1ccc(CN(C)C)o1"
  measure.unit: "mg/dL"
  URIC ACID: 2.73

Q) May I ask what URIC ACID has been recorded for `CO[C@H]1/C=C/O[C@@]2(C)Oc3c(C)c(O)c4c(c3C2=O)C2=NC3(CCN(CC(C)C)CC3)NC2=C(NC(=O)/C(C)=C\C=C\[C@H](C)[C@H](O)[C@@H](C)[C@@H](O)[C@@H](C)[C@H](OC(C)=O)[C@@H]1C)C4=O` ?
A) 1.35

Q) May I ask what URIC ACID has been recorded for Cc1cc(=O)n(-c2ccccc2)n1C [ANTIPYRINE] ?
A) 1.2

---

species on record: Rattus norvegicus; assay: DrugMatrix - Regimen: Daily Repeat; format: toxicity, organism-based, Sprague-Dawley; set-up: regimen Daily Repeat, gender Male, age 6-8 weeks; details: in vivo, po, 0 mg/kg, […], tissue Blood, route oral GAVAGE, dose level Control, time 14 day
metric.name: ABSOLUTE BASOPHIL (cells/µL)
# unit: cells/µL | format: bare number

Q) May I ask what ABSOLUTE BASOPHIL has been recorded for `Clc1ccc(Cl)cc1` ?
A) 73.3
